Hey, just so you know, these numbers are from the supplement of paper PMC10307832.

# Tested on: NCI-H2228
# assayDetails: relative viability (nuclei count vs DMSO), 5 days (fraction); higher = more cells survive
# experimentalConditions: first compound 0.3162 µM
We label by threshold. Values of relative viability strictly beneath 0.8 are rule met. Values of 0.8 and up are rule not met.

{"molecule": "CCN(CC)CCCCNc1ncc2cc(-c3cc(OC)cc(OC)c3)c(NC(=O)NC(C)(C)C)nc2n1 + CCNC(=O)c1noc(-c2cc(C(C)C)c(O)cc2O)c1-c1ccc(CN2CCOCC2)cc1 [Luminespib] (partner 0.01 µM)", "group": "rule met"}

For this molecule, is relative viability lower than 0.8? O=c1cc(N2CCOCC2)oc2c(-c3cccc4c3sc3ccccc34)cccc12 + O=C(CCCCCCC(=O)Nc1ccccc1)NO [Vorinostat] (partner 1 µM)
rule met

For this molecule, is relative viability lower than 0.8? O=c1cc(N2CCOCC2)oc2c(-c3cccc4c3sc3ccccc34)cccc12 + COc1cc2c(Oc3ccc(NC(=O)C4(C(=O)Nc5ccc(F)cc5)CC4)cc3F)ccnc2cc1OCCCN1CCOCC1 [Foretinib] (partner 0.25 µM)
rule not met

For this molecule, is relative viability lower than 0.8? CCN(CC)CCCCNc1ncc2cc(-c3cc(OC)cc(OC)c3)c(NC(=O)NC(C)(C)C)nc2n1 + Cc1nc(Nc2ncc(C(=O)Nc3c(C)cccc3Cl)s2)cc(N2CCN(CCO)CC2)n1 [Dasatinib] (partner 0.075 µM)
rule met

For this molecule, is relative viability lower than 0.8? O=c1cc(N2CCOCC2)oc2c(-c3cccc4c3sc3ccccc34)cccc12 + CCNC(=O)c1noc(-c2cc(C(C)C)c(O)cc2O)c1-c1ccc(CN2CCOCC2)cc1 [Luminespib] (partner 0.01 µM)
rule met

For this molecule, is relative viability lower than 0.8? CCN(CC)CCCCNc1ncc2cc(-c3cc(OC)cc(OC)c3)c(NC(=O)NC(C)(C)C)nc2n1 + CC(=O)Nc1cccc(-n2c(=O)n(C3CC3)c(=O)c3c(Nc4ccc(I)cc4F)n(C)c(=O)c(C)c32)c1 [Trametinib] (partner 0.02 µM)
rule met

For this molecule, is relative viability lower than 0.8? O=c1cc(N2CCOCC2)oc2c(-c3cccc4c3sc3ccccc34)cccc12 + C[C@]1(O)C[C@@H](c2nc(-c3ccc4ccc(-c5ccccc5)nc4c3)c3c(N)nccn32)C1 [Linsitinib] (partner 1 µM)
rule not met
